Target: UniProt:P11362
Sequence (P11362 22-822): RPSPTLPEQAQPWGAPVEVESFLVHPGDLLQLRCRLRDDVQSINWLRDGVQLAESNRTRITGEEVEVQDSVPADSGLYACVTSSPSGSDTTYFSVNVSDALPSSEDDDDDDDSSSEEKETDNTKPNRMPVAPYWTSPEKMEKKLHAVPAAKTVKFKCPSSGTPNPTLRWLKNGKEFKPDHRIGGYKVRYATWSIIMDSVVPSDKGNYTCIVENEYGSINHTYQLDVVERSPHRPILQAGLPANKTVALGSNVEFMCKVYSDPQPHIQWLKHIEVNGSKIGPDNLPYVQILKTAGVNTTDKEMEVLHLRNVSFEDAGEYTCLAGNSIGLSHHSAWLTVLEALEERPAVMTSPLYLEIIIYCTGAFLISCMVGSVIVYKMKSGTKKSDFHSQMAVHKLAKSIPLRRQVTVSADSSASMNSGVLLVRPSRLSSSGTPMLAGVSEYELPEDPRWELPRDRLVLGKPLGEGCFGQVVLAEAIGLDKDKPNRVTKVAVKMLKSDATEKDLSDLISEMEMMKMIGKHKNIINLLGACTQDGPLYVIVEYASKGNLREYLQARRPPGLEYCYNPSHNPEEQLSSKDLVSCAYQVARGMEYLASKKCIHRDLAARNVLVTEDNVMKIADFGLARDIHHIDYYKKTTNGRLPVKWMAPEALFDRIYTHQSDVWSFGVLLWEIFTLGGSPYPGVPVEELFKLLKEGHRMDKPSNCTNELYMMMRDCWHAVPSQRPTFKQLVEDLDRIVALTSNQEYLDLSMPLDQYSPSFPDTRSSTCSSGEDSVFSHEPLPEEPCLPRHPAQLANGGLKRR
Test: Kinase enzyme activity assay (mobility shift assay, Carna)
Details: FGFR1; 1 µmol/L of BTK inhibitor
Assignment: determine reported Percentage inhibition of kinase enzyme activity for the given compounds.
Answer as a quantity: numeral, then unit.

C=CC(=O)N1CCC([C@@H]2CCNc3c(C(N)=O)c(-c4ccc(Oc5ccccc5)cc4)nn32)CC1
-5.28%
CC#CC(=O)N1CCC[C@H]1c1nc(-c2ccc(C(=O)Nc3ccccn3)cc2)c2c(N)nccn12
-2.28%
C=CC(=O)N1CCC[C@@H](n2nc(-c3ccc(Oc4ccccc4)cc3)c3c(N)ncnc32)C1
70.87%
COc1ccc(F)cc1C(=O)NCc1ccc(-c2nn([C@@H](C)C(F)(F)F)c(N)c2C(N)=O)cc1
3.30%

Below: the item to evaluate.
## Task Fill in: Percentage inhibition of kinase enzyme activity of `O=C(c1ccc(Oc2ccccc2)cc1Cl)c1c[nH]c2ncnc(N[C@@H]3CC[C@@H](CO)OC3)c12` is ___
## Result 46.81%
